Source listed as ChEMBL document CHEMBL2331343.

Listing of entries alongside the reported pEC50.
target: UniProtKB P21728; assay: Agonist activity at dopamine D1 receptor (unknown origin) expressed in HEK293 cells assessed as stimulation of [35S]GTPgammaS binding by scintillation proximity assay
Sequence (P21728 whole entry): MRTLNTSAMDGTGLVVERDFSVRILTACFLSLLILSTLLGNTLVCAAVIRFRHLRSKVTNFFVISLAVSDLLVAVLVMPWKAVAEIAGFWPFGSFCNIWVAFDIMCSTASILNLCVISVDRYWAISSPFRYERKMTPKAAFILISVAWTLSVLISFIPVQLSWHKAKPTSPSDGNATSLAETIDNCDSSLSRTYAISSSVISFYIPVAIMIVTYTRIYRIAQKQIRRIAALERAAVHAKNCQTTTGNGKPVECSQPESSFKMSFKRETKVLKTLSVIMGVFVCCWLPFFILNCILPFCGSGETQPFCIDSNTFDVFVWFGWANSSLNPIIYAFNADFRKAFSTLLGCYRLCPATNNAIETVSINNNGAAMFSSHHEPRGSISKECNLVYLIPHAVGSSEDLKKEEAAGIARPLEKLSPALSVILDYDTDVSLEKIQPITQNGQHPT
pEC50 is defined as minus the log10 of a concentration measured in mol/L.

COc1c(O)ccc2c1CN1CCc3cc4c(cc3[C@@H]1C2)OCO4; 4.80

# input for lookup
[ask] For the record COc1cc2c(cc1OC)[C@@H]1Cc3ccc(O)c(OC)c3CN1CC2 , what value of pEC50 is listed for UniProtKB P21728?
[reply] 5.87

----------
Record set of pIC50 for target or system D(2) dopamine receptor (Homo sapiens).
pIC50 is defined as minus the log10 of a concentration measured in mol/L.

[ask] Fill in: pIC50 of COc1cc2c(cc1OC)[C@@H]1Cc3ccc(O)c(OC)c3CN1CC2 is ___
[reply] 4.73

[ask] Fill in: pIC50 of COc1c(O)ccc2c1CN1CCc3cc4c(cc3[C@@H]1C2)OCO4 is ___
[reply] 6.00

----------
molecular target: UniProt:P14416; details: HEK293, at 10 µM
Listing of entries alongside the reported inhibition.
Give the quantity in %, number only.

COc1cc2c(cc1O)[C@@H]1Cc3cc(C)cc(C)c3CN1CC2; 90.1
COc1c(O)ccc2c1CN1CCc3cc4c(cc3[C@@H]1C2)OCCO4; 73.1

[ask] Fill in: inhibition of COc1cc2c(cc1O)[C@H]1Cc3ccc(OC)c(O)c3CN1CC2 is ___
[reply] 31.8

[ask] Fill in: inhibition of COc1cc2c(cc1OC)[C@@H]1Cc3ccc(OC)c(OC)c3CN1CC2 [TETRAHYDROPALMATINE] is ___
[reply] 85.4

[ask] Fill in: inhibition of COc1c(O)ccc2c1CN1CCc3cc4c(cc3[C@H]1C2)OCO4 is ___
[reply] 40.5

[ask] Fill in: inhibition of COc1cc2c(cc1O)[C@H]1Cc3ccc(O)c(OC)c3CN1CC2 is ___
[reply] 53.7

[ask] Fill in: inhibition of COc1ccc2c(c1OC)CN1CCc3cc4c(cc3[C@H]1C2)OCO4 is ___
[reply] 26.6

[ask] Fill in: inhibition of COc1c(O)ccc2c1CN1CCc3cc4c(cc3[C@@H]1C2)OCO4 is ___
[reply] 92.8

----------
Listing of entries alongside the reported inhibition.
target: D(2) dopamine receptor (Homo sapiens, UniProt P14416); conditions: HEK293, at 10 µM
Sequence (P14416 whole entry): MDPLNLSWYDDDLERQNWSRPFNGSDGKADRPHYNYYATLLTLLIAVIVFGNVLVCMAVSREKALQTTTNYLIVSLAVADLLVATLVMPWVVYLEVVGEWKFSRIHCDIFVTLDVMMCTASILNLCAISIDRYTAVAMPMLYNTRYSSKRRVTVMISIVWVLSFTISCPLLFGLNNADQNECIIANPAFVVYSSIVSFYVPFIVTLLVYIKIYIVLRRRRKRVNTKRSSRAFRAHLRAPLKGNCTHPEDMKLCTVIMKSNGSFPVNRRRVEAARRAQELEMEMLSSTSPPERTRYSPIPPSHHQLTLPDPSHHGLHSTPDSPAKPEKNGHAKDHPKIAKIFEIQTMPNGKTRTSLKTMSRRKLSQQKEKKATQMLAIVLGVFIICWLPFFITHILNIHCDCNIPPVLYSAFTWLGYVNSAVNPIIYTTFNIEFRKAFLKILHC
// return the numeric value with its unit appended

In the examples that follow, each entry is paired with its recorded inhibition.
COc1ccc2c(c1O)CN1CCc3cc4c(cc3[C@H]1C2)OCO4; 20.4%
COc1c(O)ccc2c1CN1CCc3cc4c(cc3[C@@H]1C2)OCC4; 63.9%
COc1cc2c(cc1O)CCN1Cc3c(ccc(OC)c3OC)C[C@H]21; 71.5%

[ask] For the record COc1cc2c(cc1O)CCN1Cc3c(ccc(O)c3OC)C[C@@H]21 , what value of inhibition is listed for D(2) dopamine receptor (Homo sapiens, UniProt P14416)?
[reply] 94.2%
